src = PubChem BioAssay AID1117319

biological target: Virion infectivity factor (Human immunodeficiency virus type 1 group M subtype B (isolate BH10)) + Virion infectivity factor (Human immunodeficiency virus type 1 group M subtype B (isolate BRU/LAI)) + Virion infectivity factor (Human immunodeficiency virus type 1 group M subtype B (isolate PCV12)) + Virion infectivity factor (Human immunodeficiency virus type 1 group M subtype B (isolate HXB2)) + DNA dC->dU-editing enzyme APOBEC-3G (Homo sapiens) (UniProt P69720+P69721+P69722+P69723+Q9HC16); assay: inhibitors of Vif binding to APOBEC3G peptide, primary screen, biochemical, TR-FRET, GST-Vif 1-94, biotin-A3G peptide, dose response retest (AID 1117319); conditions: hits give high values;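 also: Vif residues 1-94 fused to GST binding biotinylated APOBEC3G peptide 110-148; 0% = full assay without inhibitor and 100% = GST in place of GST-Vif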
Among all 260,000 compounds or so, about 1,500 (0.58%) were called active. Inconclusive results (about 5%) are left out. A selection follows. Entries with a potency or affinity are not part of this list.
Provide the recorded inhibition for the entries that follow.
Numbers only, in %.

Cc1ccc(CC(NC(=O)c2ccccc2)C(=O)N2CCCC2C(=O)O)cc1 (configuration not stated) ... -0.14

Dear colleague, could you please provide inhibition for the compounds listed below?
1. O=C(c1ccc(Cl)cc1)C1CCCN(Cc2cccn2-c2ccccn2)C1 (configuration not stated)
2. CC1(C)[C@@H](O)CC[C@]2(C)[C@H]3C(=O)C=C4[C@@H]5C[C@@](C)(C(=O)O)CC[C@]5(C)CC[C@@]4(C)[C@]3(C)CC[C@@H]12
3. Cc1ccccc1-n1cnc2cc(NCc3cccs3)ccc21
4. CC1(C)CC2(CC(c3ccccc3F)c3cc(Cl)c(O)cc3O2)NC(=S)N1 (configuration not stated)
5. C#CCN(C[C@H]1[C@H](OC(=O)Nc2c(C)noc2C)[C@H](OC(=O)Nc2c(C)noc2C)C[C@@H](C(=O)OC)[C@H]1C(=O)OC)S(=O)(=O)c1ccc(C)cc1
6. COc1cccc(CNC(=O)CCCNS(=O)(=O)c2cccs2)c1

Result:
[-9.46, 27.5, 4.79, 0.09, 1.23, 22.8]
